Below: a set of entries, each annotated with reported half-life.
experiment: Mouse liver microsomal stability; type: in vitro ADME; conditions: microsomes, pH 7.4

Recorded half-life, per entry:
CCCCCS(=O)(=O)Nc1ccc2[nH]nc(C)c2c1 = 3.26 min
CCCCS(=O)(=O)Nc1ccc2[nH]c(C(N)=O)c(C)c2c1 = 6.16 min
CCCCS(=O)(=O)Nc1ccc2[nH]nc(Cl)c2c1 = 32.1 min

# context switch: different compound, same half-life
Query :: Return reported half-life. Input compound: `CCCCS(=O)(=O)Nc1ccc2[nH]c(C(=O)OCC)c(C)c2c1`
Result :: < 0.5 min

----------
assay: in vitro; type: cell-based; details: African green monkey
Below: a set of entries, each annotated with reported CC50.

CCCCS(=O)(=O)Nc1ccc2[nH]c(C(=O)OCC)c(C)c2c1 [Compound 5] = > 150 µM
CCCCCS(=O)(=O)Nc1ccc2[nH]nc(C)c2c1 [Compound 13] = 89 µM
CCCCCS(=O)(=O)Nc1ccc2[nH]c(C#N)c(C)c2c1 [Compound 10] = 160 µM
CCCCS(=O)(=O)Nc1ccc2[nH]c(CN)c(C)c2c1 [Compound 11] = 170 µM
O=S(=O)(CCCC(F)(F)F)Nc1ccc2[nH]nc(Cl)c2c1 [Compound 16] = > 150 µM

Query :: Return reported CC50. Input compound: CCCCS(=O)(=O)Nc1ccc2[nH]nc(Cl)c2c1 [Compound 14]
Result :: 22 µM

Query :: Return reported CC50. Input compound: CCCCS(=O)(=O)Nc1ccc2[nH]c(C(N)=O)c(C)c2c1 [Compound 8]
Result :: > 160 µM

Query :: Return reported CC50. Input compound: O=S(=O)(CCCCF)Nc1ccc2[nH]nc(Cl)c2c1 [Compound 18]
Result :: 160 µM

Query :: Return reported CC50. Input compound: CCCCCS(=O)(=O)Nc1ccc2[nH]nc(Cl)c2c1 [Compound 17]
Result :: 170 µM

Query :: Return reported CC50. Input compound: Cc1n[nH]c2ccc(NS(=O)(=O)CCCC(F)(F)F)cc12 [Compound 15]
Result :: > 160 µM
